Tested on: 786-0 renal
assay comment: NCI tumour cell line growth inhibition, 48 h
property label: TGI

Illustrative cases are given below, each with its answer.
# molecule, TGI
measured = [
    ("COc1ccc(-c2nc3sc4c(c3c(=O)[nH]2)CCCC4)c2ccccc12", "3.8 µM"),
    ("CC1CCC2(CC1)N=C1CCC(C)CC1C1(CCC(C)CC1)N2 (stereo unspecified)", "> 100 µM"),
    ("Cc1ccccc1C(C(=O)NC1CCCCC1)N(C(=O)Cn1ccnc1C)c1cccc(F)c1 (stereo unspecified)", "> 100 µM"),
    ("CCOC(=O)[C@H]1Nc2ccc(Cl)cc2[C@H]2c3ccccc3O[C@H]21", "> 100 µM"),
]

Q: Could you share what TGI was measured for Cc1c(O)c(=O)ccn1CCO , tested on 786-0 renal?
A: > 100 µM

Q: Could you share what TGI was measured for O=[N+]([O-])c1ccc(Cl)cc1C=NC12CC3CC(CC(C3)C1)C2 , tested on 786-0 renal?
A: > 95.2 µM
